system: Staphylococcus aureus (ATCC 25923); assay: Intrinsic antimicrobial activity (MIC) against S. aureus; assay type: cell-based; conditions: ATCC25923, S. aureus ATCC 25923, mean (n = 3), read-out: MIC S. a
log10 MIC values, listed per item
Please be aware that the numbers have been log10-transformed from MIC in µM.

COc1ccc2[nH]cc(CC(=O)NCCCNCCCCCCCCCCCCNCCCNC(=O)Cc3c[nH]c4ccc(OC)cc34)c2c1.O=C(O)C(F)(F)F.O=C(O)C(F)(F)F [Compound 16f] | 0.83
O=C(Cc1c[nH]c2ccc(Br)cc12)NCCCNCCCCCCNCCCNC(=O)Cc1c[nH]c2ccc(Br)cc12.O=C(O)C(F)(F)F.O=C(O)C(F)(F)F [Compound 15b] | 1.13
Cc1ccc2[nH]cc(CC(=O)NCCCNCCCCCCNCCCNC(=O)Cc3c[nH]c4ccc(C)cc34)c2c1.O=C(O)C(F)(F)F.O=C(O)C(F)(F)F [Compound 17b] | 1.49
O=C(Cc1c[nH]c2ccccc12)NCCCNCCCCCCNCCCNC(=O)Cc1c[nH]c2ccccc12.O=C(O)C(F)(F)F.O=C(O)C(F)(F)F [Compound 14b] | 2.11
O=C(Cc1c[nH]c2ccccc12)NCCCNCCCCCCCCCCCCNCCCNC(=O)Cc1c[nH]c2ccccc12.O=C(O)C(F)(F)F.O=C(O)C(F)(F)F [Compound 14f] | 0.56
Cc1cccc2c(CC(=O)NCCCNCCCCCCCCCCCCNCCCNC(=O)Cc3c[nH]c4c(C)cccc34)c[nH]c12.O=C(O)C(F)(F)F.O=C(O)C(F)(F)F [Compound 20f] | 1.45

get_value(item= O=C(Cc1c[nH]c2ccccc12)NCCCNCCCCCCCNCCCNC(=O)Cc1c[nH]c2ccccc12.O=C(O)C(F)(F)F.O=C(O)C(F)(F)F [Compound 14c] , readout=log10 MIC) returns 1.20

Lab book: log10 MIC of Cc1cccc2c(CC(=O)NCCCNCCCCCCCNCCCNC(=O)Cc3c[nH]c4c(C)cccc34)c[nH]c12.O=C(O)C(F)(F)F.O=C(O)C(F)(F)F [Compound 20c] noted as 0.58

log10 MIC in this record for COc1cccc2c(CC(=O)NCCCNCCCCCCCCCCNCCCNC(=O)Cc3c[nH]c4c(OC)cccc34)c[nH]c12.O=C(O)C(F)(F)F.O=C(O)C(F)(F)F [Compound 19e] : 1.45

Recorded result, Cc1cccc2c(CC(=O)NCCCNCCCCCCCCCCNCCCNC(=O)Cc3c[nH]c4c(C)cccc34)c[nH]c12.O=C(O)C(F)(F)F.O=C(O)C(F)(F)F [Compound 20e] , log10 MIC: 2.37

Briefly, log10 MIC measured for Cc1cccc2c(CC(=O)NCCCNCCCCCCNCCCNC(=O)Cc3c[nH]c4c(C)cccc34)c[nH]c12.O=C(O)C(F)(F)F.O=C(O)C(F)(F)F [Compound 20b] : 1.80
